- TESTED TARGET: BRM (Homo sapiens, UniProt P51531)
- Construct: made in house; host or cells: High Five insect cells
- Sequence (P51531 whole entry): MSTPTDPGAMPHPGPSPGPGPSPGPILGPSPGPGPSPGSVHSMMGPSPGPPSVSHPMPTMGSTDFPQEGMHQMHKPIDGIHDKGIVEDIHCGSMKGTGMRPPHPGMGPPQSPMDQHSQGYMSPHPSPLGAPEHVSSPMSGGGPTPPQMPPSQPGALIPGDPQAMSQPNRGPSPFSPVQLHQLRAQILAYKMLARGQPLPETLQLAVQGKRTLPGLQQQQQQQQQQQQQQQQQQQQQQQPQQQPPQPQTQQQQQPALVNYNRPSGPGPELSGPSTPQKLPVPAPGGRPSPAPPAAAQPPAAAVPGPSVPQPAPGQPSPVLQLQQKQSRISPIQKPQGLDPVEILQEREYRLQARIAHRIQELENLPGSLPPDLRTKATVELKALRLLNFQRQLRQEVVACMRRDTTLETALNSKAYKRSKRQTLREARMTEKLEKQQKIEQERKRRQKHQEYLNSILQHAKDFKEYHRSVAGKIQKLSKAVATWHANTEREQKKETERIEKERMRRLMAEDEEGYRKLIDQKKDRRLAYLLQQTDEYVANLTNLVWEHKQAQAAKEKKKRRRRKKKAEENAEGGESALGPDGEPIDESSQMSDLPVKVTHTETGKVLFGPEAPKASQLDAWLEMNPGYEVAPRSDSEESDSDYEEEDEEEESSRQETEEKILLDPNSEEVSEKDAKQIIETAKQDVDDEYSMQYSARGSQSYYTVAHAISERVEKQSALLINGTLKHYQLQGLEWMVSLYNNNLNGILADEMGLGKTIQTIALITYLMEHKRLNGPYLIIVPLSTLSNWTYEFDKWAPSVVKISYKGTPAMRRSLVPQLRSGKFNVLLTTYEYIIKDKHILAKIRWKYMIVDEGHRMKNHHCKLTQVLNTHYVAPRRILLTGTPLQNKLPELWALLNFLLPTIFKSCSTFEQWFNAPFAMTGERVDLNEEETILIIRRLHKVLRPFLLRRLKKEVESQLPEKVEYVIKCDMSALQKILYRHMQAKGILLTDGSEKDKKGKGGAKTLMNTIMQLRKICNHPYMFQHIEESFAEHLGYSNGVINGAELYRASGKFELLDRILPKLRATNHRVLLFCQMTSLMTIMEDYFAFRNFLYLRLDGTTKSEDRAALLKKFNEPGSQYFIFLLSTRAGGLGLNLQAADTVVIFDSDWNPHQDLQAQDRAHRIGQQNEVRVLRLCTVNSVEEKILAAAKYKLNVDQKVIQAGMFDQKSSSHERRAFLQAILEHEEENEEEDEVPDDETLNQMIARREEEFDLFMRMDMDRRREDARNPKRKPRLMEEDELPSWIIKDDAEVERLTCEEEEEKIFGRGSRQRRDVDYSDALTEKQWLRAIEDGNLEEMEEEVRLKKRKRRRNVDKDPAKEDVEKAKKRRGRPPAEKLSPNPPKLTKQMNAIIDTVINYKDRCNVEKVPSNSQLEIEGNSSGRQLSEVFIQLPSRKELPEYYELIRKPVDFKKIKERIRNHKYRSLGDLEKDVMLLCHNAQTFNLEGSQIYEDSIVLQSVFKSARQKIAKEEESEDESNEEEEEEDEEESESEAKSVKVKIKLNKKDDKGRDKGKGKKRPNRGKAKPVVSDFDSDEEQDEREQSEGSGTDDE
- ASSAY REMARKS: ATPase catalytic activity of BRM, ADP-Glo in vitro biochemical assay
- ASSAY SETUP: ratio of BRG1 IC50 to BRM IC50
READOUT NAME: Ratio*

CHEMICAL STRUCTURE: O=C(NCc1cc2nc(N3CCOc4cc(C5CC5)cnc43)ccc2cn1)c1ccc2c(c1)S(=O)(=O)CCOC2
TESTED TARGET: BRM (Homo sapiens, UniProt P51531)
Ratio*: 12.62

CHEMICAL STRUCTURE: O=C(NCc1cc2nc(-c3cccc(N4CC[C@@H]5C[C@@H]5C4)n3)ccc2cn1)c1ccc2c(c1)S(=O)(=O)CCOC2
TESTED TARGET: BRM (Homo sapiens, UniProt P51531)
Ratio*: 12.19

CHEMICAL STRUCTURE: C[C@@H]1CN(c2cccc(-c3ccc4cnc(CNC(=O)c5cc(F)c6c(c5)S(=O)(=O)CCO[C@H]6C)cc4n3)n2)C[C@H](C)O1
TESTED TARGET: BRM (Homo sapiens, UniProt P51531)
Ratio*: 4.48

1 = O=C(NCc1cc2nc(N3CCCc4cc(Cl)cnc43)ccc2cn1)c1ccc2c(c1)S(=O)(=O)CCOC2
2 = CO[C@H]1C[C@@H]1N(C)c1cccc(-c2ccc3cnc(CNC(=O)c4ccc5c(c4)S(=O)(=O)[C@@H](C)COC5)cc3n2)n1
// returns 1 or 2 , whichever has the lower Ratio* The response must carry the label of the picked entry. 2
(2: 8.79, 1: 14.25)

----------
- TESTED TARGET: BRG-1 (Homo sapiens)
- Construct: made in house; host or cells: High Five insect cells
- Sequence (P51532 whole entry): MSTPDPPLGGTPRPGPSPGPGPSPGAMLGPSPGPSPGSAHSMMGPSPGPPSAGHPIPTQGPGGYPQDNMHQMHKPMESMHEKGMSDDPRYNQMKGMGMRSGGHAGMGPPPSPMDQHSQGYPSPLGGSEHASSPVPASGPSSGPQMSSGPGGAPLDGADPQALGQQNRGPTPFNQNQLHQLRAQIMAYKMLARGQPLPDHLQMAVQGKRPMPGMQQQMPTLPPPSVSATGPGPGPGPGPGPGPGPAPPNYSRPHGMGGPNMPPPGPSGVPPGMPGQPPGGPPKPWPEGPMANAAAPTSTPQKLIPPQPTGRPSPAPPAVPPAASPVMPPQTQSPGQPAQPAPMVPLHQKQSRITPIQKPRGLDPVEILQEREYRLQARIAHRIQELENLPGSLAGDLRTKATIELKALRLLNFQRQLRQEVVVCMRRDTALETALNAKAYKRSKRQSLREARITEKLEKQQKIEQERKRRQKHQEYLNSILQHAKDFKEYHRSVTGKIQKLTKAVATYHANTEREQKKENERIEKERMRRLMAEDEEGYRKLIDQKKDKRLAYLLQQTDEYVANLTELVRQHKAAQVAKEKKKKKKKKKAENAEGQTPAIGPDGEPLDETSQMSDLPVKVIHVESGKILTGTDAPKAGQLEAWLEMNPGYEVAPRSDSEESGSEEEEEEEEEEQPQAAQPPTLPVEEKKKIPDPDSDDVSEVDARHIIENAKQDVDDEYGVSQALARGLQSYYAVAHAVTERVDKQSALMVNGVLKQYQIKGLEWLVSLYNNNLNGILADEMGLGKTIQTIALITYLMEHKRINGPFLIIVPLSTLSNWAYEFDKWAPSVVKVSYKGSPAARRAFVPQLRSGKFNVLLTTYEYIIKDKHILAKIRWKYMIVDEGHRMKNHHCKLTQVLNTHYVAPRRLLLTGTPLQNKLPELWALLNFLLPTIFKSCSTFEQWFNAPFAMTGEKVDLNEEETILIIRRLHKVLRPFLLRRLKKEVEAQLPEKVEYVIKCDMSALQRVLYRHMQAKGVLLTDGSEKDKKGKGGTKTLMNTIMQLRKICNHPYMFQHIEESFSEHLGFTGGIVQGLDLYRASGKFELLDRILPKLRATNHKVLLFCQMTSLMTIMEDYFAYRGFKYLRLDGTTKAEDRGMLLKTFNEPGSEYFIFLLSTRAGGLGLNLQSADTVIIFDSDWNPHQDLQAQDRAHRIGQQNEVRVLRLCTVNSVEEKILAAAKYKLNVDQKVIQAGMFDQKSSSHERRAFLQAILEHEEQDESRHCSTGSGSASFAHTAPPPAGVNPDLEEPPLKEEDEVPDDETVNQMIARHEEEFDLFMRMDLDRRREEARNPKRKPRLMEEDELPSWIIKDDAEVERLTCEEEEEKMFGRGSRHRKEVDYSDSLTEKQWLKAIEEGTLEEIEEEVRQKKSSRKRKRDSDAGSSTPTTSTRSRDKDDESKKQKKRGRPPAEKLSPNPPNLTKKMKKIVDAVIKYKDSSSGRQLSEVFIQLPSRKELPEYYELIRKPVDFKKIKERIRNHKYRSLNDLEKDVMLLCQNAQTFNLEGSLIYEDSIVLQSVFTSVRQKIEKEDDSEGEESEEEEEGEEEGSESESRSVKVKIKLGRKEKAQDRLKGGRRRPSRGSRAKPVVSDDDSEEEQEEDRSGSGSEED
- ASSAY REMARKS: ATPase catalytic activity of BRG-1, ADP-Glo in vitro biochemical assay
- ASSAY SETUP: ADP-Glo ATPase assay, 30 nM BRG-1, 400 μM ATP; read-out: BRG1 IC50
READOUT NAME: IC50 (nM)

Use these answered entries as a reference point.
CHEMICAL STRUCTURE: CO[C@H]1CCCN(c2cccc(-c3ccc4cnc(CNC(=O)c5ccc6c(c5)S(=O)(=O)CCOC6)cc4n3)n2)C1
TESTED TARGET: BRG-1 (Homo sapiens)
UNIT STRING: nM
IC50: 93.6
//
CHEMICAL STRUCTURE: O=C(NCc1cc2nc(N3CCOc4ccc([C@H](F)CF)nc43)ccc2cn1)c1ccc2c(c1)S(=O)(=O)CCOC2
TESTED TARGET: BRG-1 (Homo sapiens)
UNIT STRING: nM
IC50: 664
//
CHEMICAL STRUCTURE: O=C(NCc1cc2nc(N3CCCc4ccc(OCC5(F)COC5)cc43)ccc2cn1)c1ccc2c(c1)S(=O)(=O)CCOC2
TESTED TARGET: BRG-1 (Homo sapiens)
UNIT STRING: nM
IC50: 27.9
//
CHEMICAL STRUCTURE: CO[C@H](C)CN(C)c1cccc(-c2ccc3cnc(CNC(=O)c4ccc5c(c4)S(=O)(=O)CCOC5)cc3n2)n1
TESTED TARGET: BRG-1 (Homo sapiens)
UNIT STRING: nM
IC50: 239
//
CHEMICAL STRUCTURE: O=C(NCc1cc2nc(-c3cccc(C4CC(F)(F)C4)n3)ccc2cn1)c1ccc2c(c1)S(=O)(=O)CCOC2
TESTED TARGET: BRG-1 (Homo sapiens)
UNIT STRING: nM
IC50: 499

1 = CS(=O)(=O)c1cncc(C(=O)NCc2cc3nc(-c4cncc(C5CC5)n4)ccc3cn2)c1
2 = C[C@H]1C[C@H]1c1ccc2c(n1)N(c1ccc3cnc(CNC(=O)c4ccc5c(c4)S(=O)(=O)CCOC5)cc3n1)CCO2
3 = C[C@@H]1CN(c2cccc(-c3ccc4cnc(CNC(=O)c5cc(F)c(C(F)F)c(S(C)(=O)=O)c5)cc4n3)n2)C[C@H](C)O1
4 = O=C(NCc1cc2nc(-c3cccc(N4CCC4)n3)ccc2cn1)c1ccc2c(c1)S(=O)(=O)CCOC2
5 = CN(C)c1cnc2c(c1)OCCN2c1ccc2cnc(CNC(=O)c3ccc4c(c3)S(=O)(=O)CCOC4)cc2n1
Rank descending by IC50. Order the labels as requested and list them. 1, 2, 3, 4, 5

I = Cn1nccc1-c1cccc(-c2ccc3cnc(CNC(=O)c4ccc5c(c4)S(=O)(=O)CCOC5)cc3n2)c1
II = C[C@@H]1CN(c2cccc(-c3ccc4cnc([C@@H](C)NC(=O)c5ccc6c(c5)S(=O)(=O)CCOC6)cc4n3)n2)C[C@H](C)O1
// returns I or II , whichever has the lower IC50 The response must carry the label of the picked entry. II
(II: 497 nM, I: 1130 nM)

P = C[C@@H]1CN(c2cccc(-c3ccc4cnc(CNC(=O)c5ccc(C(F)F)c(S(C)(=O)=O)c5)cc4n3)n2)C[C@@H](C)O1
Q = Cc1cnc2c(c1)N(C1CC1)CCN2c1ccc2cnc(CNC(=O)c3ccc4c(c3)S(=O)(=O)CCOC4)cc2n1
Which of the two items, P and Q , has the greater recorded IC50? The response must carry the label of the picked entry. P
